Data origin: patent US8975259B2

Molecular target: Gβ1γ2 (UniProt P54311+P63212)
Experiment: Competition phage ELISA: inhibition of SIGK-phage binding to immobilized biotinylated Gβ1γ2
Parameters: made in house; host or cells: Sf9 insect cells (baculovirus; co-expressed with BirA and (His)6-Gαi1, from which βγ was eluted); species or system rat
Conditions: IC50 μM, Table 18, compounds identified in Elisa screen
Protocol: Phage ELISA assays used to assess peptide binding to wild-type and mutant b-βγ were performed according to standard methods (Smrcka and Scott (2002) Methods Enzymol. 344:557-76). […] The wells were washed, followed by the addition of 40 μL of (2,2′-Azino-bis (3-ethylbenzthiazoline)-6-sulfonic acid (ABTS) and the colorimetric reaction was monitored at 405 nm. Nonspecific binding was subtracted for each reading. […]
quantity_kind: IC50 (µM)
Just the number in µM, nothing appended.

Identify IC50 associated with the compound O=C(O)C1CCCCC1c1c2ccc(=O)c(O)c-2oc2c(O)c(O)ccc12 (stereo not shown) 0.2
